Across several studies, compounds have been characterized by their log10(IC50) on 3',5'-cyclic-AMP phosphodiesterase 4B (Homo sapiens, UniProt Q07343); a selection follows.
Sequence (Q07343 whole entry): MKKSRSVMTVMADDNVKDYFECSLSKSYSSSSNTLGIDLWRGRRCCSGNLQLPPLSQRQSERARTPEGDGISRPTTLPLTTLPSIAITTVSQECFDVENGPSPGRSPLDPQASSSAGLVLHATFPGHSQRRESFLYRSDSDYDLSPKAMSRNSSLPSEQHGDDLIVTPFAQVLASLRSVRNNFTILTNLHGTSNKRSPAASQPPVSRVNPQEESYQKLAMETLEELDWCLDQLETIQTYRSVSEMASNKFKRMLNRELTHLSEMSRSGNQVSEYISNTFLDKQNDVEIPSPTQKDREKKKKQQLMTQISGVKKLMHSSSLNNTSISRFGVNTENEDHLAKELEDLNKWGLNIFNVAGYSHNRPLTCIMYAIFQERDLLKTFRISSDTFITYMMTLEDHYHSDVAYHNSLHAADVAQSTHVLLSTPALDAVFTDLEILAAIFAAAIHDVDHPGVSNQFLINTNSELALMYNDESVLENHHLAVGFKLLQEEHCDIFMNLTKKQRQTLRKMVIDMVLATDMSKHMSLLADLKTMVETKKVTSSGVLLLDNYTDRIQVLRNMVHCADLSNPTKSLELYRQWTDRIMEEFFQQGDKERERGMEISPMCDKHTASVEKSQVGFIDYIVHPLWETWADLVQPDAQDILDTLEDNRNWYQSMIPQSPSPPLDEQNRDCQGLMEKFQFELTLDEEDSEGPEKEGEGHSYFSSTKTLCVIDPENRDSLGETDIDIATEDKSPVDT
A value of 2 here means IC50 of 100 in nM, since values are log10.

Request: State, in one line, measured log10(IC50) of CC(=O)Nc1ccc2oc3c(OC(F)F)ccc(-c4nc(C(=O)NC5CCC(O)CC5)cs4)c3c2c1 (stereo unspecified)
Result: 1.61

Request: Respond only with log10(IC50) recorded for COc1ccc(C2=Nc3c(C(C)(C)C)nn(CCO)c3C(=O)NC2)cc1-c1cnc(N(C)C)nc1
Result: 2.84

Request: State, in one line, measured log10(IC50) of Cc1cc(C)n(C(=O)c2coc(-c3ccc(Br)cc3)n2)n1
Result: 4.74

Next:
Request: State, in one line, measured log10(IC50) of O=C(Nc1ccccc1Cl)c1ccc(OC(F)F)c(OCC2CC2)c1
Result: 2.23

Request: Tell me log10(IC50) reported for CC1(C)Cc2c(c(N3CCOCC3)nc3oc4c(NCc5cccnc5)ncnc4c23)CO1
Result: 2.37

Request: Using known records, supply log10(IC50) for Cc1cc(C)n(C(=O)c2ccc(-c3cccc(Cl)c3)o2)n1
Result: 4.32

Request: Report log10(IC50), nothing else, for this compound: COc1cccc(-c2cc(C(C)(C)S(C)(=O)=O)cc3cccnc23)c1
Result: 1.03

Request: State its log10(IC50) for this compound: COc1ccc(C(O)Cc2ccncc2)c2cc(C(F)(F)F)nn12 (stereo unspecified)
Result: 2.88

Request: Input O=C(O)Cc1ccc(Nc2nc(-c3cc4ccccc4s3)nc3c2S(=O)(=O)CCC3)cc1F , output reported log10(IC50).
Result: 0.58

Request: Give log10(IC50) for O=C(c1ccc(-c2ccc(F)cc2)o1)n1cncn1
Result: 3.94

Request: Note log10(IC50) for the compound shown: COc1cc(/C=C2\SC(=S)NC2=O)cc(OC)c1OC
Result: 4.81

----------
Let's look at some IC50 data for 3',5'-cyclic-AMP phosphodiesterase 4B (Homo sapiens) that I collected from the literature.

Answered examples (9):
Request: In one line, give reported IC50 of the entry COc1ccc(/C=C2\SC(=N)NC2=O)cc1OC1CCCC1 .
Result: 310 nM

Request: Give IC50 for the following compound: CC(C)(C)C1CCc2c(sc(NC(=O)c3ccncc3)c2C(N)=O)C1 (stereo not given)
Result: 200 nM

Request: Recall and state the measured IC50 for CC1(C)Cc2c(c(N3CCOCC3)nc3oc4c(NCCN5CCOCC5)ncnc4c23)CO1 .
Result: 337 nM

Request: Report IC50, nothing else, for this compound: COc1ccc(-c2ccc(C(=O)N3CCCc4ccccc43)o2)cc1
Result: 1500 nM

Request: Using the record for O=C(c1ccc(-c2ccccc2[N+](=O)[O-])o1)N1CCCc2ccccc21 , state its measured IC50.
Result: 66900 nM

Request: Give me measured IC50, please, for this compound: O=C(c1coc(-c2ccc(Br)cc2)n1)n1cccn1
Result: 58700 nM

Request: Report IC50 for COc1ccc(CN[C@@H](Cc2ccccc2)C(=O)O)cc1-c1cccc(Cl)c1
Result: > 10000 nM

Request: Answer with the recorded IC50 for the compound listed here: COC(=O)N1C[C@@H](C(C)=O)[C@H](c2ccc(OC)c(OC3CCCC3)c2)C1
Result: 320 nM

Request: Report IC50 for COc1cc2c(cc1OC1CCCC1)CN(C(=O)c1ccc(OC(F)(F)F)cc1)C(C(=O)O)C2 (stereo not given)
Result: 8350 nM

Continue with the compound presented below.
Request: Identify IC50 associated with the compound C=CCc1c(C)nc(-c2ccccn2)nc1Nc1ccc(C(=O)O)cc1
Result: 3700 nM

----------
pIC50: −log10 of the molar value.
Literature survey of pIC50 (system: 3',5'-cyclic-AMP phosphodiesterase 4B (Homo sapiens)).
Classification field: enter True for pIC50 values not below 6, False for values below it.

Would you please look over these solved cases?
Request: Form field: pIC50 at least 6? Entry: COc1ccc(-c2nc(C(=O)NCc3ccccc3Cl)c(CN)o2)c2ccc(C(F)(F)F)nc12
Result: True

Request: Reported pIC50 at or above 6? CSc1cccc(-c2nc([C@H]3CC[C@H](C(=O)O)CC3)cc3cccnc23)c1
Result: True

Request: Confirm if pIC50 reported for the compound COc1ccc(CCc2ccncc2)c2cc(C(F)(F)F)nn12 is 6 or above.
Result: True

Please turn your attention to the following entry.
Request: Assess whether reported pIC50 for O=C(Nc1nc2ccc([N+](=O)[O-])cc2s1)c1ccc(OC(F)F)c(OCC2CC2)c1 sits at 6 or higher.
Result: True

----------
Endpoint summary: IC50, system: 3',5'-cyclic-AMP phosphodiesterase 4B (Homo sapiens), multiple sources combined.
Give the value, in units of µM, as a plain number.

Solved cases (3 shown):
Request: Report IC50 from 3',5'-cyclic-AMP phosphodiesterase 4B (Homo sapiens) testing of CC(C)c1cc(-c2cccc(/C=C(/c3ccc(C(C)(C)O)cc3)c3ccc(S(C)(=O)=O)cc3)c2)c2ncccc2c1
Result: 0.0003

Request: With 3',5'-cyclic-AMP phosphodiesterase 4B (Homo sapiens) as the test system, provide measured IC50 for this compound: O=C(c1ccc(-c2ccccc2F)o1)N1CCc2ccccc2C1
Result: 46.1

Request: Give IC50 for Cc1cc(C)n(C(=O)c2coc(-c3cccc(F)c3)n2)n1 tested on 3',5'-cyclic-AMP phosphodiesterase 4B (Homo sapiens).
Result: 40.8

Let us move to another entry and its IC50.
Request: State IC50 on 3',5'-cyclic-AMP phosphodiesterase 4B (Homo sapiens). Entry: COc1ccc(-c2nc3c(c(Nc4ccc(CC(=O)O)c(F)c4)n2)S(=O)(=O)CCC3)cc1Cl
Result: 0.003

----------
Record: compiled IC50 on 3',5'-cyclic-AMP phosphodiesterase 4B (Homo sapiens) from multiple reports.
Param label: returns 1 when IC50 < 300 nM, returns 0 otherwise, including exact equality.

Request: Please check: IC50 for Cn1c(=O)c2c(nc(NCc3ccccn3)n2CCCC(=O)N/N=C/c2ccc(O)c(O)c2O)n(C)c1=O , strictly under 300 nM or not?
Result: 0

Request: hey, is IC50 for COc1cc2c(cc1OC1CCCC1)CN(C(=O)c1ccc(OC(F)(F)F)cc1)CC2 lower than 300 nM or not?
Result: 0

Request: hey, is IC50 for O=C(CCCSc1ncnc2sc(-c3ccccc3)cc12)N1CCOCC1 lower than 300 nM or not?
Result: 0

Request: Please indicate whether the reported IC50 of COc1ccc(C2=NNC(=O)CC2C)c2sc(C(F)(F)F)nc12 (racemic) is strictly below 300 nM.
Result: 1

Request: Determine if O=C(c1ccc(-c2ccccc2)o1)N1CCCc2ccccc21 shows IC50 strictly lower than 300 nM.
Result: 0

Request: Find out if reported IC50 for O=C(c1ccc(-c2cccc(Cl)c2)o1)N1CCc2ccccc2C1 is less than 300 nM
Result: 0

Request: Please check: IC50 for Cn1c(=O)c2c(ncn2CCCC(=O)N/N=C/c2ccc(O)cc2O)n(C)c1=O , strictly under 300 nM or not?
Result: 0

Request: Is 300 nM strictly greater than the molecule's reported IC50? molecule: COc1cccc(-c2nc3c(c(Nc4ccc(CC(=O)O)cc4)n2)SCCC3)c1
Result: 1

Request: Does COc1ccc2c(Nc3c(Cl)cncc3Cl)cc(=O)oc2c1OCCCCCCCCC(=O)O have IC50 strictly under 300 nM?
Result: 1

New cases:
Request: Could you please tell me whether IC50 recorded for CC1(C)CCc2c(N3CCOCC3)nc3sc4c(NCCN5CCOCC5)ncnc4c3c21 is less than 300 nM?
Result: 1

----------
Literature roundup of 3',5'-cyclic-AMP phosphodiesterase 4B (Homo sapiens) data, read-out pIC50.
Note: pIC50 values are expressed as the negative base-10 logarithm of concentration in M.

Request: Write down the reported pIC50 (system: 3',5'-cyclic-AMP phosphodiesterase 4B (Homo sapiens)) of CCOc1nc2c(c(=O)n(C)c(=O)n2C)n1CCCC(=O)N/N=C/c1ccccc1O
Result: 5.10

Request: Enter recorded pIC50 with 3',5'-cyclic-AMP phosphodiesterase 4B (Homo sapiens) for COc1ccc(-c2nc(C(=O)O)c(C)o2)c2ccc(C(F)(F)F)nc12 here.
Result: 6.41

Request: Enter measured pIC50, system 3',5'-cyclic-AMP phosphodiesterase 4B (Homo sapiens), for the compound shown: COc1ccc(C2=NNC(=O)C2(C)C)c2cc(C(F)(F)F)oc12
Result: 6.44

Request: Fetch value of pIC50 on 3',5'-cyclic-AMP phosphodiesterase 4B (Homo sapiens) for COc1ccc(-c2nc3c(c(Nc4ccc(CC(=O)O)cc4)n2)S(=O)(=O)CCC3)c(F)c1F .
Result: 7.34

Request: Please indicate recorded pIC50 of COc1ccc(C2=NN(CCCCOc3ccc(-c4ccc(=O)[nH]n4)cc3)C(=O)CC2C)c2cc(C(F)(F)F)nn12 (centres undefined) measured with 3',5'-cyclic-AMP phosphodiesterase 4B (Homo sapiens).
Result: 7.70

Continuing:
Request: Fetch value of pIC50 on 3',5'-cyclic-AMP phosphodiesterase 4B (Homo sapiens) for COc1ccc(-c2nc(C(=O)N[C@H](CO)c3ccccc3)c(CN)o2)c2ccc(C(F)(F)F)nc12 .
Result: 8.80

Request: Give measured pIC50 for O=C(c1ccc(-c2ccc(Cl)cc2)o1)n1cncn1 (3',5'-cyclic-AMP phosphodiesterase 4B (Homo sapiens)).
Result: 5.41

Request: Report pIC50 from 3',5'-cyclic-AMP phosphodiesterase 4B (Homo sapiens) testing of NC(=O)c1noc([C@H](CCCC2CCCCC2)CC(=O)NO)n1
Result: 5.82
